- Tested on: HT-29
- PROCEDURE SUMMARY: Anti-necroptotic activity in human HT-29 cells assessed as inhibition of TNFalpha/SM-164/Z-VAD-fmk (TSZ)-induced necroptosis by measuring increase in cell viability measured after 12 hrs by celltiter-glo luminescent cell viability assay
- Type: functional, cell-based
- PARTICULARS: HT-29, 12 h
pEC50: −log10 of the molar value.
# binarize pEC50: threshold 6 inclusive, high side rule met, low side rule not met

// known answers, use as guide
1) CC1(C)CC[C@]2(C(=O)NCCNC(=O)OC(C)(C)C)CC[C@]3(C)[C@H](C(=O)C=C4[C@@]5(C)C=C(C#N)C(=O)C(C)(C)[C@@H]5CC[C@]43C)[C@@H]2C1	rule not met
2) CC1(C)CC[C@]2(C(=O)n3cnc(-c4ccccn4)c3)CC[C@]3(C)[C@H](C(=O)C=C4[C@@]5(C)C=C(C#N)C(=O)C(C)(C)[C@@H]5CC[C@]43C)[C@@H]2C1	rule met

Now let's try a different one.
Textbook exercise: given the entry CC1(C)CC[C@]2(C(=O)n3ccnc3)CC[C@]3(C)[C@H](C(=O)C=C4[C@@]5(C)C=C(C#N)C(=O)C(C)(C)[C@@H]5CC[C@]43C)[C@@H]2C1 , state whether its pEC50 is greater than or equal to 6.
rule not met

---

- System: HT-29
- PROCEDURE SUMMARY: Anti-necroptotic activity in human HT-29 cells assessed as inhibition of TNFalpha/SM-164/Z-VAD-fmk (TSZ)-induced necroptosis by measuring increase in cell viability measured after 12 hrs by celltiter-glo luminescent cell viability assay
- Format: functional, cell-based
- PARTICULARS: HT-29, 12 h
PROPERTY: pEC50
Units for pEC50: none; it is -log10 of a concentration expressed in mol/L.

1) CC1(C)CC[C@]2(C(=O)N[C@H]3CCCc4ccccc43)CC[C@]3(C)[C@H](C(=O)C=C4[C@@]5(C)C=C(C#N)C(=O)C(C)(C)[C@@H]5CC[C@]43C)[C@@H]2C1	5.74
2) CCNC(=O)[C@]12CCC(C)(C)C[C@H]1[C@H]1C(=O)C=C3[C@@]4(C)C=C(C#N)C(=O)C(C)(C)[C@@H]4CC[C@@]3(C)[C@]1(C)CC2	5.86

Here is another compound to look at.
Returns the measured pEC50 for the input compound. Input: CC1(C)CC[C@]2(C(=O)NC3CCCCC3)CC[C@]3(C)[C@H](C(=O)C=C4[C@@]5(C)C=C(C#N)C(=O)C(C)(C)[C@@H]5CC[C@]43C)[C@@H]2C1
5.89

---

- System: HT-29
- PROCEDURE SUMMARY: Anti-necroptotic activity in human HT-29 cells assessed as inhibition of TNFalpha/SM-164/Z-VAD-fmk (TSZ)-induced necroptosis by measuring increase in cell viability measured after 12 hrs by celltiter-glo luminescent cell viability assay
- Format: functional, cell-based
- PARTICULARS: HT-29, 12 h
Some compounds, each annotated with its measured pEC50.
Quick note: pEC50 means taking -log10 of the concentration in moles per liter.

Known pEC50 results, listed for orientation:
1) CC1(C)CC[C@]2(C(=O)NCc3ccccc3)CC[C@]3(C)[C@H](C(=O)C=C4[C@@]5(C)C=C(C#N)C(=O)C(C)(C)[C@@H]5CC[C@]43C)[C@@H]2C1	5.79
2) CC1(C)CC[C@]2(C(=O)n3cnc(-c4cccnc4)c3)CC[C@]3(C)[C@H](C(=O)C=C4[C@@]5(C)C=C(C#N)C(=O)C(C)(C)[C@@H]5CC[C@]43C)[C@@H]2C1	6.51
3) COC(=O)[C@]12CCC(C)(C)C[C@H]1[C@H]1C(=O)C=C3[C@@]4(C)C=C(C#N)C(=O)C(C)(C)[C@@H]4CC[C@@]3(C)[C@]1(C)CC2	5.36

Write down the reported pEC50 of CC1(C)CC[C@]2(C(=O)N[C@@H]3CCCc4ccccc43)CC[C@]3(C)[C@H](C(=O)C=C4[C@@]5(C)C=C(C#N)C(=O)C(C)(C)[C@@H]5CC[C@]43C)[C@@H]2C1 , test system: HT-29.
5.72

Recorded values, source ChEMBL document CHEMBL4732104.
